Reported pIC50 values follow for various molecules
# Test system: Radical scavenging activity
# procedure_details: Antioxidant activity assessed as DPPH radical scavenging activity
# Type: functional
pIC50: −log10 of the molar value.
value_type: pIC50

1. COc1ccc(O)c(C(C)(C)C)c1.COc1ccc(O)cc1C(C)(C)C [BUTYLATED HYDROXYANISOLE] = 4.36
2. CCCOC(=O)c1cc(O)c(O)c(O)c1 [PROPYL GALLATE] = 4.52

====

# measured_target: Xanthine dehydrogenase/oxidase (Homo sapiens)
# Sequence (P47989 whole entry): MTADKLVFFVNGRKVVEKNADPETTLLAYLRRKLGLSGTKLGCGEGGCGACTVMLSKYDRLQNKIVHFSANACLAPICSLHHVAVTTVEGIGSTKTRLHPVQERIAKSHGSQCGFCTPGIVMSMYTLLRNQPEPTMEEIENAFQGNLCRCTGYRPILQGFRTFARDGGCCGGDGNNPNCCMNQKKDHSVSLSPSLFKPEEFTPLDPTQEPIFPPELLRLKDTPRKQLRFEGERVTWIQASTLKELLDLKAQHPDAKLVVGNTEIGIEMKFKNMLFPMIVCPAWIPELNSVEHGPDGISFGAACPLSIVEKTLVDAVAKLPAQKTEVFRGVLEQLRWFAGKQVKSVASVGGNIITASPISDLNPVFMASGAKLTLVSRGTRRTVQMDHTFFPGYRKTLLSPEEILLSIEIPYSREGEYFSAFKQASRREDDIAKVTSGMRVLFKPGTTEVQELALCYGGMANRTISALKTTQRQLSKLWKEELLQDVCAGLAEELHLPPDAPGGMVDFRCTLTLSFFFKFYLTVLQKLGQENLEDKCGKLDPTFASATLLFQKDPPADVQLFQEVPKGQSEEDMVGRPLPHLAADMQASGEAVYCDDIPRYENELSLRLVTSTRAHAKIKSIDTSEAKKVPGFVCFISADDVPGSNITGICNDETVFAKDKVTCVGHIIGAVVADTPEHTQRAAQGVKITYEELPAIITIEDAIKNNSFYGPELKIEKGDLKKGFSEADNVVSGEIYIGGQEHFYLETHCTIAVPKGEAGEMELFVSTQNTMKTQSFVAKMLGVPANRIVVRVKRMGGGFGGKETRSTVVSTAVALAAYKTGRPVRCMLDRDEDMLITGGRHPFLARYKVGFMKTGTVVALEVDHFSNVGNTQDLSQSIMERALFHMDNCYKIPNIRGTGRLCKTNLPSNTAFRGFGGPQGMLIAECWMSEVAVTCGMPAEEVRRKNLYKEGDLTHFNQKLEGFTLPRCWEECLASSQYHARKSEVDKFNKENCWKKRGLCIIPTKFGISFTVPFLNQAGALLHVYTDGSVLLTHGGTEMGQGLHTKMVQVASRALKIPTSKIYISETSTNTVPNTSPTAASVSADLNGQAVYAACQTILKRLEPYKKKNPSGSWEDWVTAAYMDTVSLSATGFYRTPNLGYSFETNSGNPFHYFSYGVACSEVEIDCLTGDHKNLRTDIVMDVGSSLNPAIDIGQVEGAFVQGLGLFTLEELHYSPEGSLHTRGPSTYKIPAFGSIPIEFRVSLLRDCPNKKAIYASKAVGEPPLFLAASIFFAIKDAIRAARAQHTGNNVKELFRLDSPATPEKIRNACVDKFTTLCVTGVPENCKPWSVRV
value_type: IC50 (µM)

1. COc1ccc(O)c(C(C)(C)C)c1.COc1ccc(O)cc1C(C)(C)C [BUTYLATED HYDROXYANISOLE] = 591
2. COc1cc(/C=C/c2ccc(O)cc2)cc(O[C@@H]2O[C@H](CO[C@@H]3O[C@@H](C)[C@H](O)[C@@H](O)[C@H]3O)[C@@H](O)[C@H](O)[C@H]2O)c1 = 129
3. CCCOC(=O)c1cc(O)c(O)c(O)c1 [PROPYL GALLATE] = 628
